Hey, just so you know, these numbers are from PubChem BioAssay.

METHOD_DESCRIPTION: binders of probe aFST on microarray, primary screen, stem cell growth factor project, biochemical, small-molecule microarray, fluorescence 635/667 (AID 1086);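 also: score merges 667 nm fluorescence with signal-to-noise of each printed compound spot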
CONDITION_LABEL: higher = more signal
Mark Criterion not met for composite z-score values under 0.2, and Criterion met for everything at or above.

For orientation, consider the following solved cases.
[
  {
    "COMPOUND": "CCCCCCc1nc(CCCc2cc3c(c(CCCCCC)n2)[Si](C(C)C)(C(C)C)OC3)cc2c1[Si](C(C)C)(C(C)C)OC2",
    "GROUP_LABEL": "Criterion not met"
  },
  {
    "COMPOUND": "CC(=O)Nc1cc(Br)ccc1C(=O)O",
    "GROUP_LABEL": "Criterion met"
  },
  {
    "COMPOUND": "CCCCC(CC)C(O)C1C=CC2C(=O)N(c3ccccc3)C(=O)C2N1Nc1ccccc1 (configuration not stated)",
    "GROUP_LABEL": "Criterion met"
  },
  {
    "COMPOUND": "C=C(COC)/C(=C/C[C@H](OC(=O)c1ccncc1)c1cccc(OCCO)c1)c1cc(C(=O)OC)ccc1OC",
    "GROUP_LABEL": "Criterion not met"
  },
  {
    "COMPOUND": "CCOC(=O)C[C@H]1[C@H](OC(=O)Cc2ccc3c(c2)OCO3)[C@@H](NC(=O)C2CCCCC2)c2cc(OCCCO)ccc2N1C(=O)Cc1ccc(OC)cc1",
    "GROUP_LABEL": "Criterion met"
  }
]

Please examine the following record next.
Q. Is the recorded value of composite z-score equal to or greater than 0.2 for this compound? C=CCC(OC(C)=O)[C@@H]1[C@@H](N(Cc2ccc(-c3cccc(C(F)(F)F)c3)o2)C(=O)c2ccc(C)cc2)c2cc(OCCCO)ccc2N1C(=O)c1ccc(-c2ccccc2)cc1 (some centres not stated)
A. Criterion not met

====

METHOD_DESCRIPTION: binders of probe aHhip on microarray, primary screen, stem cell growth factor project, biochemical, small-molecule microarray, fluorescence 635/667 (AID 1087);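 also: score merges spot fluorescence at 667nm with spot signal to noise ratio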
CONDITION_LABEL: higher = more signal
Mark FALSE for composite z-score values under -0.1, and TRUE for everything at or above.

For orientation, consider the following solved cases.
[
  {
    "MOLECULE": "CC(=O)NCCCC[C@@H]1NC(=O)[C@H]2C[C@@H](C(=O)NCCCCCC[N+](C)(C)C)[C@@H](c3cccc(OCCO)c3)N2C1=O",
    "GROUP_LABEL": "FALSE"
  },
  {
    "MOLECULE": "O=C(CS)NCCCCCCNC(=O)[C@@H]1C[C@@H]2C(=O)N3CCC[C@H]3C(=O)N2[C@@H]1c1ccc(O)cc1",
    "GROUP_LABEL": "FALSE"
  },
  {
    "MOLECULE": "COc1ccc(C(=O)Nc2cccc(CN3C(=O)[C@]4(O[C@H](CC(=O)N5CCC[C@H]5CO)[C@@H]([Si](C)(C)c5ccc(OC)cc5)[C@@H]4C)c4ccccc43)c2)cc1",
    "GROUP_LABEL": "FALSE"
  },
  {
    "MOLECULE": "CCOC(=O)C[C@H]1[C@H](OC(=O)c2ccc(-c3ccccc3)cc2)[C@@H](NC(=O)c2ccc3ccccc3c2)c2cc(OCCCO)ccc2N1C(=O)Cc1ccc(OC)cc1",
    "GROUP_LABEL": "FALSE"
  }
]

Please examine the following record next.
Q. Is the recorded value of composite z-score equal to or greater than -0.1 for this molecule? COC(=O)c1ccc(C23CC2(C(NP(=O)(c2ccccc2)c2ccccc2)c2ccccc2)C3)cc1 (stereo unspecified)
A. TRUE
